assay: chemical genetic growth profiling, strain panel (AID 1159580);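 also: tested at 20 µM; growth read once vehicle control cultures reached saturation at 30 °C; lower values mean less growth of the strain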; conditions: S. cerevisiae deletion strains, growth OD, locus YOR231W, strain MKK1
The whole screen tested about 5,500 compounds, of which about 2,000 (36%) were called active. Inconclusive results (about 18%) are left out. Rule as the data show it: active = normalized growth mostly below about 0.91 (no sharp cut-off); inconclusive = no clear call, values can overlap the other calls; inactive = mostly above about 0.92. This is one part of the list.
Labels: y = active, n = inactive

> print(dat)
                                    molecule  label.value
 1  Cc1cc(NC(=O)C2=C(O)c3ccccc3S(=O)(=O)N2C)no1            n
 2  CC(C)(CCC(C)(C)N1C(=O)c2cccc3cccc(c23)C1=O)N1C(=O)c2cccc3cccc(c23)C1=O            y
 3  O=C1[C@H](CCC(O)c2ccc(F)cc2)[C@@H](c2ccc(O)cc2)N1c1ccc(F)cc1 (stereo partly specified)            n
 4  Cc1c(S(=O)(=O)O)oc2c1C(=O)C(=O)c1c-2ccc2c1CCCC2(C)C            n
 5  CC(C)C(=O)Nc1ccc([N+](=O)[O-])c(C(F)(F)F)c1            n
 6  CC1(C)OC(=O)C(=Cc2cccn2-c2ccc(OC(F)(F)F)cc2)C(=O)O1            n
 7  COC(=O)C(O)c1ccccc1 (stereo unspecified)            n
 8              CC(C)(CO)[C@@H](O)C(=O)NCCCO            n
 9                    Cc1cccc(C)c1NC1=NCCCS1            n
10  CCC(C)C(=O)O[C@H]1C[C@H](O)C=C2C=C[C@H](C)[C@H](CC[C@@H](O)C[C@@H](O)CC(=O)O)C21 (stereo partly specified)            n
11  CC1(C)OC(=O)C(=Cc2cccn2-c2ccc(C(F)(F)F)cc2)C(=O)O1            n
12  Cc1cccc2c3c(ccc12)C1=C(C(=O)C3=O)C(C)CO1 (stereo unspecified)            y
13  O=c1c2ccccc2[nH]c(=S)n1-c1cccc(C(F)(F)F)c1            n
14   Cc1coc2c1C(=O)C(=O)c1c-2ccc2c1CCCC2(C)C            n
15  Cc1cccc(NC(=S)NNC(=O)CSCc2cccc3ccccc23)c1            n
16  CC(C(=O)O)c1ccc(C(=O)c2cccs2)cc1 (stereo unspecified)            n
17  CC[C@H](C)C(=O)O[C@H]1C[C@@H](C)C=C2C=C[C@H](C)[C@H](CC[C@@H]3C[C@@H](O)CC(=O)O3)[C@H]21            n
18  COC(=O)C(C)c1ccc(C(=O)c2cccs2)cc1 (stereo unspecified)            n
19  CCCC(=O)O[C@]1(C(=O)CO)CCC2[C@@H]3CCC4=CC(=O)CC[C@]4(C)C3[C@@H](O)C[C@@]21C (stereo partly specified)            n
20  CC1(C)NC(=O)N(c2ccc([N+](=O)[O-])c(C(F)(F)F)c2)C1=O            n
21  CC1(C)C2(Cl)C(Cl)C(Cl)C(Cl)(C(Cl)Cl)C1(Cl)C2Cl (stereo unspecified)            n
